Data credit: patent US20230118307A1

- targetSystem: T1, human GIP receptor (human, UniProt P48546 22-466)
- T1 sequence (looked up): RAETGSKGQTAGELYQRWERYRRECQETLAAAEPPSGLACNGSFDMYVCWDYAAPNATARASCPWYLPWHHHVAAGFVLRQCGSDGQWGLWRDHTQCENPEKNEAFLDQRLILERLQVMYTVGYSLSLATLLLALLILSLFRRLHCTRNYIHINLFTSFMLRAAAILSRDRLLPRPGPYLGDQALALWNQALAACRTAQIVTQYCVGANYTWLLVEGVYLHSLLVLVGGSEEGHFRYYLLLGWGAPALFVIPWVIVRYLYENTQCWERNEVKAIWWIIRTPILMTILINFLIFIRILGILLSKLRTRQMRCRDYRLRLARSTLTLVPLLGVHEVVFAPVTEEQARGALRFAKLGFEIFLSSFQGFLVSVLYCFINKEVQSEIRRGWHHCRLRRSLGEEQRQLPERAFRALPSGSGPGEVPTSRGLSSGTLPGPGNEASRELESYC
- protocol: cell-based or functional assay
Positions of bridges follow the written chain, without caps; N, C: chain ends. Non-standard residues stand in square brackets, D forms with d. No end group written: not given here. *: point of attachment. Acetyl(2-(4-imidazolyl)) = O=C(Cc1c[nH]cn1)*; Aib = CC(C)(N)C(=O)O
readout: In vitro Activity Compared to Native Peptide (%) vs. GIP

binder: H[Aib]QGTFTSDVSSYLLGQQQKEFIAWLVKGC [triple agonist of SEQ ID NO: 4]
result: < 0.1%

binder: [Acetyl(2-(4-imidazolyl))]GEGTFTSDLSKYLDSRRQQLFVQWLKAGGPSSGAPPPSHG [triple agonist of SEQ ID NO: 11]
result: < 0.1%

binder: [Acetyl(2-(4-imidazolyl))]GQGTFTSDLSIQYEEEAQQDFVEWLKDTGPSSGAPPPSHG [triple agonist of SEQ ID NO: 20]
result: < 0.1%

binder: {Acetyl(2-(4-imidazolyl))}-[Aib]QGTFTSDYSIAMDEKHCKDFVNWLLNTK (bridge 15-19) [triple agonist of SEQ ID NO: 60]
result: 8.2%
